- Test system: Bacillus subtilis subsp. spizizenii ATCC 6633 = JCM 2499
- test-summary: Inhibition of FtsZ in Bacillus subtilis ATCC 6633 assessed as ratio of diameter of zone inhibition of test compound to diameter of zone inhibition of tetracycline at 100 ug per disc after 18 to 24 hrs by paper disc agar diffusion assay
recorded-metric: Ratio

Worked cases, Ratio given:
# get_value(readout='Ratio', item= NC(=O)c1c(F)ccc(OCC(=O)OCc2ccccc2)c1F )
0.18

# get_value(readout='Ratio', item= NC(=O)c1c(F)ccc(OCCC(=O)Oc2ccccc2)c1F )
0.3

# get_value(readout='Ratio', item= NC(=O)c1c(F)ccc(OCCCOc2ccc(Cl)c3cccnc23)c1F )
0.1

I: COc1ccc(OCCOC(=O)COc2ccc(F)c(C(N)=O)c2F)cc1
II: Cc1ccc(OC(=O)COc2ccc(F)c(C(N)=O)c2F)cc1
III: COc1ccc(OC(=O)COc2ccc(F)c(C(N)=O)c2F)cc1
Order the 3 compounds from highest to lowest Ratio. Would you mind listing the labels in the order asked for?
I, II, III

I: Cc1ccc(OCCOC(=O)COc2ccc(F)c(C(N)=O)c2F)cc1
II: NC(=O)c1c(F)ccc(OCC(=O)OCCOc2ccc(Br)cc2)c1F
Decide: I or II , by lowest recorded Ratio. Give the label under which the chosen entry appears.
II
(II: 0.15, I: 0.25)

----------
- target-desc: Cell division protein FtsZ (Staphylococcus aureus)
- test-summary: Inhibition of FtsZ in Staphylococcus aureus ATCC 6538P assessed as ratio of diameter of zone inhibition of test compound to diameter of zone inhibition of cephaloridine at 100 ug per disc after 18 to 24 hrs by paper disc agar diffusion assay
recorded-metric: Ratio

# get_value(readout='Ratio', item= Cc1ccc(OCCOC(=O)COc2ccc(F)c(C(N)=O)c2F)cc1 )
0.1

# get_value(readout='Ratio', item= NC(=O)c1c(F)ccc(OCCCOc2cccc3cccnc23)c1F )
0.07

# get_value(readout='Ratio', item= NC(=O)c1c(F)ccc(OCC(=O)OCCOc2ccccc2)c1F )
0.18

# get_value(readout='Ratio', item= Cc1ccc(OC(=O)COc2ccc(F)c(C(N)=O)c2F)cc1 )
0.25

# get_value(readout='Ratio', item= NC(=O)c1c(F)ccc(OCC(=O)Nc2ccccc2)c1F )
0.1

P: NC(=O)c1c(F)ccc(OCC(=O)OCCOc2ccc(Br)cc2)c1F
Q: NC(=O)c1c(F)ccc(OCc2nc3cc(Cl)cnc3s2)c1F
Endpoint returns the identifier whose Ratio is numerically larger, either P or Q . Give the label under which the chosen entry appears.
Q

A: NC(=O)c1c(F)ccc(OCC(=O)OCCOc2ccc(F)cc2)c1F
B: NC(=O)c1c(F)ccc(OCCCOc2ccc(Cl)c3cccnc23)c1F
Decide: A or B , by lowest recorded Ratio. Give the label under which the chosen entry appears.
B

1: NC(=O)c1c(F)ccc(OCCC(=O)Oc2ccccc2)c1F
2: NC(=O)c1c(F)ccc(OCC(=O)Oc2ccccc2)c1F
3: NC(=O)c1c(F)ccc(OCCCOc2c(Cl)cc(Cl)c3cccnc23)c1F
// ascending sort on recorded Ratio Would you mind listing the labels in the order asked for?
2, 3, 1
(2: 0.07, 3: 0.18, 1: 0.41)

----------
- Test system: Klebsiella aerogenes
- test-summary: Inhibition of FtsZ in Klebsiella aerogenes ATCC 9621 assessed as growth inhibition at 100 ug per disc after 18 to 24 hrs by paper disc agar diffusion assay
The source made the active and inactive calls. No cut-off for these calls is given here.
recorded-metric: inhibition

# get_value(readout='inhibition', item= N#Cc1ccc(OCCOC(=O)COc2ccc(F)c(C(N)=O)c2F)cc1 )
inactive

# get_value(readout='inhibition', item= Cc1ccc2cccc(OCCCOc3ccc(F)c(C(N)=O)c3F)c2n1 )
inactive

# get_value(readout='inhibition', item= COc1ccc(OCCOC(=O)COc2ccc(F)c(C(N)=O)c2F)cc1 )
inactive

# get_value(readout='inhibition', item= NC(=O)c1c(F)ccc(OCCCOc2c(Cl)cc(Cl)c3cccnc23)c1F )
inactive

# get_value(readout='inhibition', item= NS(=O)(=O)c1c(F)ccc(OCc2nc3cc(Cl)ccc3s2)c1F )
inactive

Next:
# get_value(readout='inhibition', item= NC(=O)c1c(F)ccc(OCC(=O)Nc2ccccc2)c1F )
inactive

# get_value(readout='inhibition', item= NC(=O)c1c(F)ccc(OCC(=O)OCCOc2ccc(F)cc2)c1F )
inactive

# get_value(readout='inhibition', item= NS(=O)(=O)c1c(F)ccc(OCc2nc3cc(Cl)cnc3s2)c1F )
inactive

# get_value(readout='inhibition', item= NC(=O)c1c(F)ccc(OCCC(=O)Oc2ccccc2)c1F )
inactive

# get_value(readout='inhibition', item= NC(=O)c1c(F)ccc(OCC(=O)OCCOc2ccccc2)c1F )
inactive

# get_value(readout='inhibition', item= Cc1ccc(OC(=O)COc2ccc(F)c(C(N)=O)c2F)cc1 )
inactive

# get_value(readout='inhibition', item= COc1ccc(OC(=O)COc2ccc(F)c(C(N)=O)c2F)cc1 )
inactive

# get_value(readout='inhibition', item= NC(=O)c1c(F)ccc(OCCCOc2cccc3ccccc23)c1F )
inactive

# get_value(readout='inhibition', item= NC(=O)c1c(F)ccc(OCC(=O)OCCOc2ccc(Br)cc2)c1F )
inactive

# get_value(readout='inhibition', item= NC(=O)c1c(F)ccc(OCCCOc2ccc3ccccc3c2)c1F )
inactive

# get_value(readout='inhibition', item= NC(=O)c1c(F)ccc(OCCCOc2ccc(Cl)c3cccnc23)c1F )
inactive

# get_value(readout='inhibition', item= Cc1ccc(OCCOC(=O)COc2ccc(F)c(C(N)=O)c2F)cc1 )
inactive

This collection of values is drawn from ChEMBL document CHEMBL4007481.
